Biological target: SMAD3 MH1 (Homo sapiens, UniProt P84022 1-132)
Sequence (P84022 1-132): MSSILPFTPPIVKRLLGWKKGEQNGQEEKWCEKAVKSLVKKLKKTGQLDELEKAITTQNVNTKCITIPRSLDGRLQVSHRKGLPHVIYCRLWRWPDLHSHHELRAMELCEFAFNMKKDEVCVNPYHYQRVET
Experiment: EMSA; Hill 1.8; EMSA: 25 mM Tris-HCl (pH not given for binding buffer; RNA stock pH 7.5), 115 mM KCl, 1 mM MgCl2, 1 mM DTT, 20 ng/ul poly I:C, 0.1 mg/ml BSA, 10% glycerol, on ice 2 h; 0.5x TBE gel at 4 C
Settings: protein: recombinant; tags: 6xHis-SUMO cleaved; label: 5' 32P; hairpin with 6x3 internal loop
observationType: Kd

Quick note, Kd for GGGUCUCGUAUUGCAGAAAUGACUUCGGUCAAAUCAAGAGAGAC (structured_RNA) [17b D4a truncation 2] landed at 480 nM
